Assignment: determine reported inhibition for the given compounds.
# experimental system: Pyruvate kinase PKM (Homo sapiens)
# assay explanation: Inhibition of PKM2 (unknown origin)
# Parameters: concentration or dose not given beside the values
# stated conditions: concentration not given here
The answer is to be given in %; state only the numeric part.

Lookup: Return inhibition for the following compound: CC[C@H](C)[C@H](N)C(=O)O
Found: 20

Lookup: Return inhibition for the following compound: N[C@@H](Cc1ccccc1)C(=O)O
Found: 100

Lookup: Return inhibition for the following compound: N[C@@H](CS)C(=O)O
Found: 20

Lookup: Return inhibition for the following compound: C[C@@H](O)[C@H](N)C(=O)O
Found: 20

Lookup: Return inhibition for the following compound: CSCC[C@H](N)C(=O)O
Found: 65

Lookup: Return inhibition for the following compound: O=C(O)[C@@H]1CCCN1
Found: 65

Lookup: Return inhibition for the following compound: C[C@H](N)C(=O)O
Found: 100

Lookup: Return inhibition for the following compound: CC(C)[C@H](N)C(=O)O
Found: 65

Lookup: Return inhibition for the following compound: N[C@@H](Cc1c[nH]c2ccccc12)C(=O)O
Found: 65
